Experiment: AUC (0 to infinity) in ICR mouse at 10 mg/kg, po administered via gavage measured after 0.25 to 24 hrs by UPLC/MS analysis
Assay type: ADME, organism-based
Parameters: dose 10 mg/kg, route oral, time infinity
Conditions: in vivo
Collected AUC(0-inf) values appear next to each entry.

Some entries whose results are on file:
Cc1ccc(-n2nc(C(=O)N3CCN(C)CC3)nc2-c2ccc3c(c2)N(C2CCCC2)[C@H](C)C(=O)N3C)cc1F :: 8360 ng·h/mL
Cc1ccc(-n2nc(C(=O)N3CCN(C)CC3)nc2-c2ccc3c(c2)N(C2CC2)C(C)C(=O)N3C)cc1 (stereo not given) :: 2760 ng·h/mL
Cc1ccc(-n2cnnc2-c2ccc3c(c2)N(C2CC2)C(C)C(=O)N3C)cc1 (stereo not given) :: 164 ng·h/mL
Cc1ccc(-n2nc(C(=O)N3C[C@@H](C)N[C@@H](C)C3)nc2-c2ccc3c(c2)N(C2CCCC2)[C@H](C)C(=O)N3C)cc1 :: 7390 ng·h/mL

Shift focus to the following entry.
Q: Please look at this compound and report its AUC(0-inf): Cc1ccc(-n2nc(C(=O)N3CCN(C)CC3)nc2-c2ccc3c(c2)N(C2CCCC2)[C@H](C)C(=O)N3C)cc1
Result: 58100 ng·h/mL

###

Assay: Tmax in rat plasma at 50 mg/kg, po
Type: ADME, organism-based
Recorded endpoint: Tmax (min)
Give just the number in min; leave the unit off.

Q: Please look at this molecule and report its Tmax: Cc1ccc(-n2nc(C(=O)N3C[C@@H](C)N[C@@H](C)C3)nc2-c2ccc3c(c2)N(C2CCCC2)[C@H](C)C(=O)N3C)cc1
Result: 24

###

Biological target: Cytochrome P450 2D6 (Homo sapiens)
Sequence (P10635 whole entry): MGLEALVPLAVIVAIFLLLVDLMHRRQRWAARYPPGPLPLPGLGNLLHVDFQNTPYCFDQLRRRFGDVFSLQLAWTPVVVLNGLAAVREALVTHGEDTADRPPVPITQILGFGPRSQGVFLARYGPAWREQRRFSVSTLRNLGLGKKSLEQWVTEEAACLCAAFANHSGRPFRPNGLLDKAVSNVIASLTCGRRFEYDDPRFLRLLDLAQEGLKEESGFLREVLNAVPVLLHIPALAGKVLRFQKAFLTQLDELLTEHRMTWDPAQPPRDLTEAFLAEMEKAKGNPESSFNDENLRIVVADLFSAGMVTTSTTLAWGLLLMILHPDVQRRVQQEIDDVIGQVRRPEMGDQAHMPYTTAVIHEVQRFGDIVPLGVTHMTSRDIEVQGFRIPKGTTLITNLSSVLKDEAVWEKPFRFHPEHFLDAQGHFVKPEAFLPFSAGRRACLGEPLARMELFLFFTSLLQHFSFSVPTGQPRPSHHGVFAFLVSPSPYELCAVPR
Experiment: Time-dependent inhibition of CYP2D6 in human liver microsomes at 10 uM using dextromethorphan as substrate preincubated up to 30 mins followed by NADPH generating system addition and measured after 10 mins
Assay type: ADME
Recorded endpoint: TDI

Some entries whose results are on file:
Cc1ccc(-n2cnnc2-c2ccc3c(c2)N(C2CC2)C(C)C(=O)N3C)cc1 (stereo unspecified) :: Not Active
Cc1ccc(-n2nc(C(=O)N3CCN(C)CC3)nc2-c2ccc3c(c2)N(C2CC2)C(C)C(=O)N3C)cc1 (stereo unspecified) :: 14 ×10⁻⁴ /min
Cc1ccc(-n2nc(C(=O)N3CCN(C)CC3)nc2-c2ccc3c(c2)N(C2CCCC2)[C@H](C)C(=O)N3C)cc1 :: Not Active
Cc1ccc(-n2c(C)nnc2-c2ccc3c(c2)N(C2CCCC2)[C@H](C)C(=O)N3C)cc1 :: Not Active

Q: Please look at this molecule and report its TDI: Cc1ccc(-n2nc(C(=O)N3C[C@@H](C)N[C@@H](C)C3)nc2-c2ccc3c(c2)N(C2CCCC2)[C@H](C)C(=O)N3C)cc1
Result: Not Active

Q: Please look at this molecule and report its TDI: Cc1ccc(-n2c(C)nnc2-c2ccc3c(c2)N(C2CC2)C(C)C(=O)N3C)cc1 (stereo unspecified)
Result: Not Active

###

Assay: AUC (0 to t) in dog plasma at 3 mg/kg, po
Format: ADME, organism-based, Canis lupus familiaris
Recorded endpoint: AUC(0-t) (ng·h/mL)
Give just the number in ng·h/mL; leave the unit off.

Q: Please look at this compound and report its AUC(0-t): Cc1ccc(-n2nc(C(=O)N3C[C@@H](C)N[C@@H](C)C3)nc2-c2ccc3c(c2)N(C2CCCC2)[C@H](C)C(=O)N3C)cc1
Result: 747
